src = patent US5494907A

# Tested on: MCF-7 human breast tumour cells
# assay.info: Anti-proliferative activity on the growth of MCF-7 human breast tumour cells (DNA dosage)
# Type: cell-based
# protocol.conditions: MCF7, stimulated by EGF + PDGF, D7 to D9, read-out: IC50, concentration which inhibited by 50% the growth of the MCF-7 cells
pIC50: −log10 of the molar value.

{"columns": ["smiles.record", "pIC50"],
 "data": [
  ["CCCCNS(=O)(=O)CCCCCOc1ccc([C@H]2C[C@]3(C)[C@@H](O)CC[C@H]3[C@@H]3CCc4cc(O)ccc4[C@H]32)cc1", 10.80],
  ["CN(CC(F)(F)C(F)(F)C(F)(F)F)S(=O)(=O)CCCCCOc1ccc([C@H]2C[C@]3(C)[C@@H](O)CC[C@H]3[C@@H]3CCc4cc(O)ccc4[C@H]32)cc1", 10.59],
  ["CCCCN(C)S(=O)(=O)CCCCCOc1ccc([C@H]2C[C@]3(C)[C@@H](O)CC[C@H]3[C@@H]3CCc4cc(O)ccc4[C@H]32)cc1", 10.82]
]}
